target: human IgEλ (U266 derived) (human, UniProt P01854 1-546); experiment: HTRF receptor-ligand competition, scFv titrated; Eu-cryptate human IgE (U266) binding to human FcεRI-Fc; geomean
Sequence (P01854 whole entry): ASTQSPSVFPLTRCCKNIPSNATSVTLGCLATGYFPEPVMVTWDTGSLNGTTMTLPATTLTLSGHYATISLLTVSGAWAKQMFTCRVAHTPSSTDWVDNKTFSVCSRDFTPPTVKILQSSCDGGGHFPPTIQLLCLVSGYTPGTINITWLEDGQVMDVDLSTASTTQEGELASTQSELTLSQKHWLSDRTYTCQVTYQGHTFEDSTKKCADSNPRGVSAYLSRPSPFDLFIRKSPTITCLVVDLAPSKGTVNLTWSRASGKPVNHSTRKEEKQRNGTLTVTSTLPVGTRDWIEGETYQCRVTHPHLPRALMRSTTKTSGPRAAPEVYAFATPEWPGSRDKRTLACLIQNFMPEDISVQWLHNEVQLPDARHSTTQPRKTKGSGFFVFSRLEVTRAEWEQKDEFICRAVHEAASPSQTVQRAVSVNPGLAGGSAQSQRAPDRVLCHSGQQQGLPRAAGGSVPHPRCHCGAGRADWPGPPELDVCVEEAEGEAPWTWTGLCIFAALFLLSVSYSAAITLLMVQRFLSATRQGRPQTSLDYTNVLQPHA
RESULT TYPE: IC50 (nM)
Give a bare numeral; the unit nM is implied.

Consider the reported IC50 for these binders:
>>> measured_value("Antibody 25 (scFv) (scFv, V domains shown, purified scFv) VH: EVQLLESGGGLVQPGGSLRLSCAAPGFTFSSYAMSWVRQAPGKGLEWVSAISGGSGGRTYYADSVKGRFTISRDNSKNTLYLQMNSLRAEDTAVYYCARHIAVAGTRGFDYWGRGTLVTISS VL: SFVLTQPPSVSVSPGQTASITCSGDKLGDTYASWYRQRSGQSPVLVIYQDDKRPSGIPERFSGSNSGNTATLTISGTHTMDEADYYCLAWDTRTSGAVFGGGTKLTVL")
6
>>> measured_value("Antibody 20 (scFv) (scFv, V domains shown, purified scFv) VH: EVQLLESGGGLVQPGGSLRLSCAASGFTFSSYAMSWVRQAPGKGLEWVSAISGSGGRTYYADSVKGRFTISRDNSKNTLYLQMNSLRAEDTAVYYCARSTYFASTRGFDYWGRGTLVTVSS VL: SYVLTQPPSVSVSPGQTASITCSGDKLGDKYASWYRQRSGQSPVLVIYQDDKRPSGIPERFSGSNSGNTATLTISGTHTMDEADYYCLAWDTRTSGAVFGGGTKLTVL")
5

Now consider the entry below.
Item Antibody 3 (scFv) (scFv, V domains shown, purified scFv) VH: EVQLLESGGGLVQPGGSLRLSCAASGFTFSSYAMSWVRQAPGKGLEWVSAISGSGGRTYYADSVKGRFTISRDNSKNTLYLQMNSLRAEDTAVYYCARHIAVAGTRGFDYWGRGTLVTVSS VL: SYVLTQPPSVSVSPGQTASITCSGDKLGDTYASWYRQRSGQSPVLVIYQDDKRPSGIPERFSGSNSGDTATLTISGTHTMDEADYYCLAWDTRTSGAVFGGGTKLTVL has what recorded IC50?
5
